src = paper PMC7616463

Molecular target: human 20S proteasome (H20S), chymotrypsin-like β5 activity (Homo sapiens, UniProt P20618+P28074)
Construct: variant as stated: H20S
Assay: Human 20S proteasome kinetic assay (chymotrypsin-like β5 activity)
Assay type: biochemical
Details: purified human 20S proteasome, β5 activity, substrate LLVY-R110, fluorescence; duplicate; read-out: IC50, nM H20S inhibition
Procedure: The fluorescent Proteasome substrate LLVY-R110 (ex: 490 nm, Em:525 nm) (#MAK172, Sigma-Aldrich) was used to measure the chymotrypsin-like activity (β5) of the human 20S proteasome and was prepared according to the activity assay kit instructions. Cleavage of this peptide generated intense green fluorescence due to the R110 group and was monitored at 520-530 nm with excitation at 480-500 nm. […] The IC50s were determined for a selection of potent PfSUB1 inhibitors. […]
Could you mark each record YES if its IC50 falls strictly under 40 nM, and NO if it equals or exceeds it?

Examples from the recorded data:
[
  {
    "smilesText": "CC[C@H](C)[C@H](NC(=O)[C@@H](NC(=O)c1ccc2ccccc2n1)C1CCCC1)C(=O)NCC(=O)N[C@H]1CCC(=O)OB1O",
    "groupLabel": "NO"
  },
  {
    "smilesText": "CC(=O)N[C@H](C(=O)N[C@H](C(=O)NCC(=O)N[C@@H](C)B(O)O)C(C)C)C1CCCC1",
    "groupLabel": "YES"
  },
  {
    "smilesText": "CC[C@H](C)[C@H](NC(=O)[C@@H](NC(=O)c1cccc(-c2ccccc2)n1)C1CCCC1)C(=O)NCC(=O)N[C@@H](C)B(O)O",
    "groupLabel": "YES"
  },
  {
    "smilesText": "CC[C@H](C)[C@H](NC(=O)[C@@H](NC(=O)c1cccc(-c2ccccc2)n1)C1CCCC1)C(=O)NCC(=O)N[C@H]1CCC(=O)OB1O",
    "groupLabel": "NO"
  },
  {
    "smilesText": "CC[C@H](C)[C@H](NC(=O)[C@@H](NC(=O)c1ccc2ccccc2n1)C1CCCC1)C(=O)NCC(=O)N[C@@H](C)B(O)O",
    "groupLabel": "YES"
  }
]

Then there is this compound:
Query block: Would you kindly verify if IC50 of `CC(=O)N[C@H](C(=O)N[C@H](C(=O)NCC(=O)N[C@@H](C)B(O)O)[C@@H](C)O)C1CCCC1` is strictly less than 40 nM?
Result block: YES

###

target: recombinant PfSUB1 (rPfSUB1) (Plasmodium falciparum, UniProt Q8I0V0); construct: made in house; test: PfSUB1 enzyme assay (recombinant PfSUB1, fluorogenic peptide substrate); assay type: biochemical; settings: rPfSUB1, substrate SERA4st1F-6R12 0.1 μM, 5 min preincubation, pH 8.2, fluorescence; duplicate; read-out: IC50, nM PfSUB1 inhibition
Sequence (Q8I0V0 218-688): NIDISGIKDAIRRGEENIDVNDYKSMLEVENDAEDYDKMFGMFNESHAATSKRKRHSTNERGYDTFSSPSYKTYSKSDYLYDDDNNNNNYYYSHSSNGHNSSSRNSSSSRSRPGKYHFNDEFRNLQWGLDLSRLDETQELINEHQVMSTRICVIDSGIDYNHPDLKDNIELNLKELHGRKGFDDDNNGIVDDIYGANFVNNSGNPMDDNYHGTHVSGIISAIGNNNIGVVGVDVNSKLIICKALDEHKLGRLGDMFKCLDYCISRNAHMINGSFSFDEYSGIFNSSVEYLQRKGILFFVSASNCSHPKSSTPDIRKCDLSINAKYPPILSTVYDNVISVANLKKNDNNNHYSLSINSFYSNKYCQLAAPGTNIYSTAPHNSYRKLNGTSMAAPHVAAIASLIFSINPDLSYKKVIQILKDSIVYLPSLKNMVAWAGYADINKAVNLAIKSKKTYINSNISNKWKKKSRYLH
Entries are sorted into classes by IC50 as follows: range A: < 5 nM; range B: ≥ 5 nM and < 9 nM; range C: ≥ 9 nM

Some solved cases for reference:
[
  {
    "compound": "CC[C@H](C)[C@H](NC(=O)[C@@H](NS(=O)(=O)c1nccs1)C1CCCC1)C(=O)NCC(=O)N[C@@H](C)B(O)O [3h]",
    "groupLabel": "range A"
  },
  {
    "compound": "CC[C@H](C)[C@H](NC(=O)[C@@H](NC(=O)c1cc(C)cc(C)c1)C1CCCC1)C(=O)NCC(=O)N[C@@H](C)B(O)O [3c]",
    "groupLabel": "range B"
  },
  {
    "compound": "CC[C@H](C)[C@H](NC(=O)[C@@H](NCc1ccccc1)C1CCCC1)C(=O)NCC(=O)N[C@@H](C)B(O)O [3i]",
    "groupLabel": "range C"
  },
  {
    "compound": "CC[C@H](C)[C@H](NC(=O)[C@@H](NC(=O)C1CCC1)C1CCCC1)C(=O)NCC(=O)N[C@@H](C)B(O)O [3g]",
    "groupLabel": "range A"
  },
  {
    "compound": "CC(=O)N[C@H](C(=O)N[C@@H](CC(C)C)C(=O)NCC(=O)N[C@@H](C)B(O)O)C1CCCC1 [2g]",
    "groupLabel": "range B"
  },
  {
    "compound": "CC(=O)N[C@H](C(=O)N[C@@H](CC(C)(C)C)C(=O)NCC(=O)N[C@@H](C)B(O)O)C1CCCC1 [2e]",
    "groupLabel": "range C"
  }
]

Query block: Which class is correct for the following compound? CC[C@H](C)[C@H](NC(=O)[C@@H](NC(C)=O)C1CCCC1)C(=O)NCC(=O)N[C@@H](C)B(O)O [2f]
Result block: range B

Query block: Textbook exercise: identify the category of the compound given here, CC(=O)N[C@H](C(=O)N[C@H](C(=O)NCC(=O)N[C@@H](C)B(O)O)C(C)(C)C)C1CCCC1 [2a] , according to its measured value.
Result block: range A

Query block: Assign a bin to CC(=O)N[C@H](C(=O)N[C@@H](Cc1ccccc1)C(=O)NCC(=O)N[C@@H](C)B(O)O)C1CCCC1 [2h]
Result block: range B

Query block: Into which bin does this compound go? CC[C@H](C)[C@H](NC(=O)[C@@H](NC(=O)C(C)(C)C)C1CCCC1)C(=O)NCC(=O)N[C@@H](C)B(O)O [3f]
Result block: range A
